Taken from the supplement of paper PMC10567573.

B1: FCHSD1 (parent)
chain: LQEPGVFSPTPPQQFQPAGTDQVC

Variants of: B1
assay.text: protein stability index of a GFP-peptide fusion (GPS, HEK-293T) (PSI 1-6); higher = more stable;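 also: lentivirally expressed fusions sorted by FACS into six bins by GFP to DsRed ratio, PSI derived from sequencing read proportions per bin multiplied by bin number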
condition.notes: c terminus: a fixed tail appended
Mark Fulfilled for reported protein stability index of 4 or greater; mark Not fulfilled for anything smaller.

INSERT INTO measurements (changes, label) VALUES
  ('T10C', 'Not fulfilled'),
  ('P11T', 'Fulfilled'),
  ('P9C', 'Fulfilled'),
  ('P11A', 'Fulfilled'),
  ('T10E', 'Fulfilled'),
  ('Q13I', 'Not fulfilled'),
  ('P11Y', 'Not fulfilled');
